Catalogue of compounds with associated pEC50
Target or test system: recombinantly expressed His-tagged protein corresponding to amino acids 575-869 of human Tyk2 (Homo sapiens, UniProt P29597)
Construct: corresponding to amino acids 575-869 of human Tyk2
Sequence (P29597 575-869): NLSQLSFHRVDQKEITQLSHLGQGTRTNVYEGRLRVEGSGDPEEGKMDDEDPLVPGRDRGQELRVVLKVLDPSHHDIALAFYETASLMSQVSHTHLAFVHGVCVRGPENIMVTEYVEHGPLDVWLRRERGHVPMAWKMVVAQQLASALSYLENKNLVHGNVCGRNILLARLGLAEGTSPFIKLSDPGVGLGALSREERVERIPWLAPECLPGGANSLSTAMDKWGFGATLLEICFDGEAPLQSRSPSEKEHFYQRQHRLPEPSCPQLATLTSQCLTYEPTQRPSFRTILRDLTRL
Measurement notes: Probe displacement assay (scintillation proximity, [3H] probe)
Condition summary: 2.5 nM Tyk2 (575-869), 40 nM radiolabeled probe, 30 minutes at room temperature
pEC50: −log10 of the molar value.

# Entry smiles, pEC50
measured = [
    ("CNC(=O)c1cnc(Nc2cc(C#N)ccn2)cc1Nc1cc(F)cc(F)c1OC", 8.00),
    ("CCC(CC)CNC(=O)c1cccc(Nc2cc(Nc3cc(C)c(F)cn3)ncc2C(=O)NC)c1OC", 7.85),
    ("CNC(=O)c1cnc(Nc2ccc(N3CCOCC3)cn2)cc1Nc1ccc(Cl)cc1OC", 7.75),
    ("CNC(=O)c1cnc(Nc2cc(CO)ccn2)cc1Nc1ccccc1C(N)=O", 8.02),
    ("[2H]C([2H])([2H])NC(=O)c1cnc(Nc2cc(C(C)(C)O)ccn2)cc1Nc1cccc(-c2ncc(F)cn2)c1OC", 8.14),
]
